Assay Name: logP determination by titration in octanol/water
Condition Context: octanol/water
Structures can show the parent of a compound that is named as a salt.

Molecule: CC1(C)S[C@@H]2[C@H](NC(=O)[C@H](N)c3ccc(O)cc3)C(=O)N2[C@H]1C(=O)O
logP: -0.02
--
Molecule: NCCCC[C@H](N[C@@H](CCc1ccccc1)C(=O)O)C(=O)N1CCC[C@H]1C(=O)O
logP: -0.51
--
Molecule: O=C1NC(=O)C(c2ccccc2)(c2ccccc2)N1 [Phenytoin sodium]
logP: 2.43
--
Molecule: CC(=O)Oc1ccccc1C(=O)O
logP: 0.9
--
Molecule: CC(=O)S[C@@H]1CC2=CC(=O)CC[C@]2(C)[C@H]2CC[C@@]3(C)[C@@H](CC[C@@]34CCC(=O)O4)[C@H]12
logP: 2.53
--
Molecule: Cc1cc2nc3c(=O)[nH]c(=O)nc-3n(C[C@H](O)[C@H](O)[C@H](O)CO)c2cc1C
logP: < -1.5
--
Molecule: CCOC(=O)C1=C(COCCN)NC(C)=C(C(=O)OC)C1c1ccccc1Cl (stereo not drawn) [Amlodipine besylate]
logP: 3.39
--
Molecule: Cc1ncc(C[n+]2csc(CCO)c2C)c(N)n1
logP: < -1.5
--
Molecule: COC(=O)[C@H](c1ccccc1Cl)N1CCc2sccc2C1 [Clopidogrel bisulfate]
logP: 4.06
--
Molecule: N[C@@H](Cc1cc(I)c(Oc2cc(I)c(O)c(I)c2)c(I)c1)C(=O)O [Levothyroxine sodium]
logP: 3.44
--
Molecule: COCCc1ccc(OCC(O)CNC(C)C)cc1 (stereo not drawn) [Metoprolol tartrate]
logP: 1.91
--
Molecule: C[C@@H](NCCCc1cccc(C(F)(F)F)c1)c1cccc2ccccc12 [Cinacalcet HCl]
logP: 5.58
--
Molecule: COc1ccc(-n2nc(C(N)=O)c3c2C(=O)N(c2ccc(N4CCCCC4=O)cc2)CC3)cc1
logP: < 1.4
--
Molecule: O=C(NC[C@H]1CN(c2ccc(N3CCOCC3=O)cc2)C(=O)O1)c1ccc(Cl)s1
logP: 1.43
--
Molecule: Oc1ncnc2[nH]ncc12
logP: -0.3

* * *

Assay Name: In vitro binding assay: free test drug recovered after 3 h incubation with and without patiromer in SGF, acetate buffer or SIF
Condition Context: QSPR input data; test matrix SIF
Reported Endpoint: SIF

Compound: CC(C)c1c(C(=O)Nc2ccccc2)c(-c2ccccc2)c(-c2ccc(F)cc2)n1CC[C@@H](O)C[C@@H](O)CC(=O)O
Readout Number: 101.1

Compound: CC(=O)Oc1ccccc1C(=O)O
Readout Number: 99.9

Compound: COc1cc(Cc2cnc(N)nc2N)cc(OC)c1OC
Readout Number: 28.4

Compound: COc1ccc(-n2nc(C(N)=O)c3c2C(=O)N(c2ccc(N4CCCCC4=O)cc2)CC3)cc1
Readout Number: 97.8

Compound: O=C1NC(=O)C(c2ccccc2)(c2ccccc2)N1 [Phenytoin sodium]
Readout Number: 92.8

* * *

Each entry below carries its reported AB.
Assay Name: In vitro binding assay: free test drug recovered after 3 h incubation with and without patiromer in SGF, acetate buffer or SIF
Condition Context: QSPR input data; test matrix acetate buffer (AB)
Structures can show the parent of a compound that is named as a salt.
Reported Endpoint: AB

Compound: Oc1ncnc2[nH]ncc12
Reported Endpoint: AB
Readout Number: 90.1
//
Compound: O=C1NC(=O)C(c2ccccc2)(c2ccccc2)N1 [Phenytoin sodium]
Reported Endpoint: AB
Readout Number: 90.2
//
Compound: CN(C)C(=N)N=C(N)N [Metformin HCl]
Reported Endpoint: AB
Readout Number: 81.8
//
Compound: O=C(NC[C@H]1CN(c2ccc(N3CCOCC3=O)cc2)C(=O)O1)c1ccc(Cl)s1
Reported Endpoint: AB
Readout Number: 92.9
//
Compound: NS(=O)(=O)c1cc(C(=O)O)c(NCc2ccco2)cc1Cl [Furosemide]
Reported Endpoint: AB
Readout Number: 94.5
//
Compound: CC1=C(C(=O)O)N2C(=O)[C@@H](NC(=O)[C@H](N)c3ccccc3)[C@H]2SC1
Reported Endpoint: AB
Readout Number: 95
//
Compound: CC(=O)Oc1ccccc1C(=O)O
Reported Endpoint: AB
Readout Number: 99.8
